Hi! I'm sharing some IC50 results obtained with HCMV NO protease (Human cytomegalovirus).
Sequence (P16753 1-256): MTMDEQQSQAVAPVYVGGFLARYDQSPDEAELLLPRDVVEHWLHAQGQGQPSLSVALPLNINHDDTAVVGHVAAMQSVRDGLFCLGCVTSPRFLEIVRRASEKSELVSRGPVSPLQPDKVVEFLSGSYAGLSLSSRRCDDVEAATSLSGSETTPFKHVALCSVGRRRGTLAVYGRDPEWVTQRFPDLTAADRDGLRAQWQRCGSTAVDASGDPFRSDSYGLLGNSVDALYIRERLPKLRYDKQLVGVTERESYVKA
Express the result in µM but write the number alone.

Would you please look over these solved cases?
CN(Cc1ccc(Cl)cc1)C(=O)N1C(=O)C[C@@H]1Cc1ccccc1    6.9
CN(Cc1ccc(SC(F)(F)F)cc1)C(=O)N1C(=O)C[C@@H]1Cc1ccccc1    6.9

Turning now to a further compound:
Provide the documented IC50 with HCMV NO protease (Human cytomegalovirus) as the system for CN(Cc1ccc(C(F)(F)F)cc1)C(=O)N1C(=O)C[C@@H]1Cc1ccco1
7.1

###

Assay: Cytotoxic effects, tetrazolium salt (MTT) metabolic assay
Assay type: cell-based
Details: read-out: TC50 (the source's name)
Method: In conjunction with the appropriate starting materials and intermediates, the procedures of examples 1 to 11 can be used to prepare other compounds of formula 1. […] Cytotoxic effects noted as TC50 in the following tables were determined according to the tetrazolium salt (MTT) metabolic assay, F. Denizot and F. Lang, J. Immun. […]
measured-parameter: CC50

CC[C@@H](NC(=O)N1C(=O)C[C@@H]1Cc1ccccc1)c1ccccc1    > 250 µM
CCC(NC(=O)N1C(=O)C[C@@H]1Cc1ccccc1)c1ccncc1 (some centres unmarked)    > 250 µM
CO[C@@H]1C(=O)N(C(=O)NCc2ccncc2)[C@H]1Cc1ccccc1    > 250 µM
CN(Cc1ccc(C(F)(F)F)cc1)C(=O)N1C(=O)CC1Cc1nnn(C)n1 (stereo in doubt)    > 195 µM
CN(Cc1ccc(S(=O)(=O)C(F)(F)F)cc1)C(=O)N1C(=O)C[C@@H]1Cc1ccccc1    > 250 µM

Record request: CC50 value, item C[C@@H](NC(=O)N1C(=O)C[C@@H]1Cc1ccccc1)c1cccc2ccccc12
> 18 µM

# get_value(readout='CC50', item= Cc1ccc(CN(C)C(=O)N2C(=O)C[C@@H]2Cc2ccccc2)cc1 )
> 200 µM

Requested field: CC50. Item: C[C@@H]1C(=O)N(C(=O)Nc2ccccc2)[C@H]1Cc1ccccc1
> 250 µM

// returns reported CC50 for input CN(Cc1ccc([N+](=O)[O-])cc1)C(=O)N1C(=O)C[C@@H]1Cc1nc2ccccc2s1
> 50 µM

What does the record list as CC50 for CN(Cc1ccc(C(F)(F)F)cc1)C(=O)N1C(=O)C[C@@H]1Cc1ccco1 ?
> 100 µM

I would be grateful if you could share the reported CC50 for CN(Cc1ccc(C(F)(F)F)cc1)C(=O)N1C(=O)C[C@@H]1Cc1nc2ccccc2s1 .
> 250 µM
